# Tested on: KRAS patient-derived spheroids with HUVEC/MSC, viability
# assay.method.text: Anticancer human tumor 323965-272-R-J2-PDC patient-derived pancreatic carcinoma cell line growth inhibition [KRAS2]
# reported.conditions: second compound 10 µM; first compound 0.316 µM; hits give low values
test.readout: viability, T/C (%)
Give bare numbers, in %.

Answered examples (4):
{"compound": "CC(=O)OC12COC1CC(O)C1(C)C(=O)C(O)C3=C(C)C(OC(=O)C(O)C(NC(=O)OC(C)(C)C)c4ccccc4)CC(O)(C(OC(=O)c4ccccc4)C21)C3(C)C (stereo not given) + CC1OCC2(CCN(c3cnc(Sc4ccnc(N)c4Cl)c(N)n3)CC2)C1N", "reported.result": 12.3}
{"compound": "CC1(C)CCC(CN2CCN(c3ccc(C(=O)NS(=O)(=O)c4ccc(NCC5CCOCC5)c([N+](=O)[O-])c4)c(Oc4cnc5[nH]ccc5c4)c3)CC2)=C(c2ccc(Cl)cc2)C1 + COc1cc2nc(C)nc(NC(C)c3cc(N)cc(C(F)(F)F)c3)c2cc1OC1CCOC1", "reported.result": 61.1}
{"compound": "CCNC(=O)CC1N=C(c2ccc(Cl)cc2)c2cc(OC)ccc2-n2c(C)nnc21 (stereo not given) + C=CC(=O)N1CCN(c2nc(=O)n(-c3c(C)ccnc3C(C)C)c3nc(-c4c(O)cccc4F)c(F)cc23)C(C)C1", "reported.result": 27.7}
{"compound": "CC(C)NCC(C(=O)N1CCN(c2ncnc3c2C(C)CC3O)CC1)c1ccc(Cl)cc1 (stereo not given) + CC1OCC2(CCN(c3cnc(Sc4ccnc(N)c4Cl)c(N)n3)CC2)C1N", "reported.result": 11.5}

Batch: viability, T/C for all items listed.
1. O=C(c1cc(Cc2n[nH]c(=O)c3ccccc23)ccc1F)N1CCN(C(=O)C2CC2)CC1 + CNCc1ccccc1-c1csc(C(C)Nc2nc(C)nc3cc(OC)c(OC)cc23)c1
2. COc1cc2nccc(Oc3ccc(NC(=O)C4(C(=O)Nc5ccc(F)cc5)CC4)cc3)c2cc1OC + COc1cc2nc(C)nc(NC(C)c3cc(N)cc(C(F)(F)F)c3)c2cc1OC1CCOC1
3. Cn1nccc1Nc1nccc(-c2cc3c(s2)C(C)(C)N(CCN2CCOCC2)C3=O)n1 + CNCc1ccccc1-c1csc(C(C)Nc2nc(C)nc3cc(OC)c(OC)cc23)c1
4. CCN1CCN(Cc2ccc(Nc3ncc(F)c(-c4cc(F)c5nc(C)n(C(C)C)c5c4)n3)nc2)CC1 + C=CC(=O)N1CCN(c2nc(=O)n(-c3c(C)ccnc3C(C)C)c3nc(-c4c(O)cccc4F)c(F)cc23)C(C)C1
5. CC1COCCN1c1cc(-c2ccnn2C)c2ccnc(-c3ccn[nH]3)c2n1 (stereo not given) + CNCc1ccccc1-c1csc(C(C)Nc2nc(C)nc3cc(OC)c(OC)cc23)c1
6. COc1cc(Nc2ncc3c(n2)-c2ccc(Cl)cc2C(c2c(F)cccc2OC)=NC3)ccc1C(=O)O + COc1cc2nc(C)nc(NC(C)c3cc(N)cc(C(F)(F)F)c3)c2cc1OC1CCOC1

1: 2.23; 2: 84.9; 3: 0.19; 4: 37.1; 5: 0.12; 6: 24

----------
# Tested on: KRAS patient-derived spheroids with HUVEC/MSC, viability
# assay.method.text: Anticancer human tumor 323965-272-R-J2-PDC cell line growth inhibition [KRAS2];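 also: spheroids exposed to agents for 7 days; 100% = DMSO vehicle control viability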
# reported.conditions: second compound 0.316 µM; first compound 1 µM; hits give low values
test.readout: viability, T/C (%)
Give bare numbers, in %.

{"compound": "COc1cc2nccc(Oc3ccc(NC(=O)C4(C(=O)Nc5ccc(F)cc5)CC4)cc3)c2cc1OC + CC1OCC2(CCN(c3cnc(Sc4ccnc(N)c4Cl)c(N)n3)CC2)C1N", "viability, T/C (%)": 64.6}

Batch: viability, T/C for all items listed.
1. CCN1CCN(Cc2ccc(Nc3ncc(F)c(-c4cc(F)c5nc(C)n(C(C)C)c5c4)n3)nc2)CC1 + C=CC(=O)N1CCN(c2nc(=O)n(-c3c(C)ccnc3C(C)C)c3nc(-c4c(O)cccc4F)c(F)cc23)C(C)C1
2. CC(=O)OC12COC1CC(O)C1(C)C(=O)C(O)C3=C(C)C(OC(=O)C(O)C(NC(=O)OC(C)(C)C)c4ccccc4)CC(O)(C(OC(=O)c4ccccc4)C21)C3(C)C (stereo not drawn) + C=CC(=O)N1CCN(c2nc(OCC3CCCN3C)nc3c2CCN(c2cccc4cccc(C)c24)C3)CC1CC#N

[43.8, 30.9]
